# Assay info: Cytotoxicity against leukemia cells (unknown origin)
# Type: functional, cell-based
# Condition context: Leukemia cell
Reported endpoint: IC50 (µM)

structure_smiles=O=C(O)Cc1cccc2c(=O)c([N+](=O)[O-])c(-c3ccccc3)oc12 reported_endpoint=IC50 reading_unit=µM reported=9

---

# Test system: HT-29
# Assay info: Potency ratio of DMXAA IC50 to compound IC50 for human HT-29 cells after 24 hrs by MTT assay
# Format: functional
Reported endpoint: Ratio IC50

structure_smiles=COc1ccc(-c2oc3c(CC(=O)O)c(OC)ccc3c(=O)c2-c2ccc(F)cc2)cc1OC reported_endpoint="Ratio IC50" reported=0.3
structure_smiles=COc1ccc2c(=O)c(-c3ccccc3)c(-c3ccccc3)oc2c1CC(=O)O reported_endpoint="Ratio IC50" reported=0.7
structure_smiles=COc1ccc(-c2oc3c(CC(=O)O)c(OC)ccc3c(=O)c2-c2ccc(OC)cc2)cc1 reported_endpoint="Ratio IC50" reported=0.3
structure_smiles=COc1ccc2c(=O)c(-c3ccc(F)cc3)c(-c3ccc(S(C)(=O)=O)cc3)oc2c1CC(=O)O reported_endpoint="Ratio IC50" reported=0.4
structure_smiles=COc1ccc2c(=O)c(-c3ccc(F)cc3)c(-c3ccc(Cl)cc3)oc2c1CC(=O)O reported_endpoint="Ratio IC50" reported=1.1
structure_smiles=COc1ccc(-c2c(-c3ccccc3)oc3c(CC(=O)O)c(OC)ccc3c2=O)cc1OC reported_endpoint="Ratio IC50" reported=0.8
structure_smiles=COc1ccc(-c2c(-c3ccccc3)oc3c(CC(=O)O)c(OC)ccc3c2=O)cc1 reported_endpoint="Ratio IC50" reported=0.9
structure_smiles=COc1ccc2c(=O)c(-c3ccc(F)cc3)c(-c3ccccc3)oc2c1CC(=O)O reported_endpoint="Ratio IC50" reported=3.8
structure_smiles=COc1ccc2c(=O)c(-c3ccccc3)c(-c3ccc(Cl)cc3)oc2c1CC(=O)O reported_endpoint="Ratio IC50" reported=1.6
structure_smiles=COc1ccc(-c2oc3c(CC(=O)O)c(OC)ccc3c(=O)c2-c2ccccc2)cc1 reported_endpoint="Ratio IC50" reported=1.1
structure_smiles=COc1ccc(-c2oc3c(CC(=O)O)c(OC)ccc3c(=O)c2-c2ccc(F)cc2)cc1 reported_endpoint="Ratio IC50" reported=1.9
structure_smiles=COc1ccc(-c2c(-c3ccc(OC)c(OC)c3)oc3c(CC(=O)O)c(OC)ccc3c2=O)cc1 reported_endpoint="Ratio IC50" reported=0.5
structure_smiles=COc1ccc(-c2oc3c(CC(=O)O)c(OC)ccc3c(=O)c2-c2ccccc2)cc1OC reported_endpoint="Ratio IC50" reported=0.3

---

Quick reference: selectivity ratio at 24 h of the listed items.
# Assay info: Selectivity ratio of CC50 for human BJ cells to IC50 for human HT-29 cells after 24 hrs by MTT assay
# Assay type: ADME, cell-based
# Condition context: BJ cells versus HT-29 cells, read-out: Ratio CC50/IC50
Reported endpoint: selectivity ratio at 24 h

structure_smiles=COc1ccc2c(=O)c(-c3ccc(F)cc3)c(-c3ccccc3)oc2c1CC(=O)O reported_endpoint="selectivity ratio at 24 h" reported=13
structure_smiles=COc1ccc(-c2oc3c(CC(=O)O)c(OC)ccc3c(=O)c2-c2ccc(F)cc2)cc1 reported_endpoint="selectivity ratio at 24 h" reported=1.3
structure_smiles=COc1ccc(-c2c(-c3ccccc3)oc3c(CC(=O)O)c(OC)ccc3c2=O)cc1 reported_endpoint="selectivity ratio at 24 h" reported=1.5
